B1: MIA2 (parent)
chain: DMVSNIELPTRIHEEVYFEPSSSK

Variants of: B1
TEST SUMMARY: protein stability index of a GFP-peptide fusion (GPS, HEK-293T) (PSI 1-6); higher = more stable;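 further: lentivirally expressed fusions sorted by FACS into six bins by GFP to DsRed ratio, PSI derived from sequencing read proportions per bin multiplied by bin number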
COND: c terminus: a fixed tail appended
I'd appreciate it if you could supply protein stability index values for the items below.
Respond numerically, and do not add a unit to the figure.

Enquiry: # protein stability index lookup, item `F18A`
Return: 4.12

Enquiry: Give the measured protein stability index of `S4K` .
Return: 4.07

Enquiry: I would be grateful if you could share the reported protein stability index for `T10Y` .
Return: 3.83

Enquiry: Which value of protein stability index has been reported for `N5K` in the records?
Return: 4.43

Enquiry: Can you share its protein stability index? I mean this variant: `S22Q`
Return: 4.13

Enquiry: Which protein stability index value is on record for `S23A` ?
Return: 3.2

This collection of values is drawn from the supplement of paper PMC10567573.
